assay_system: human P2X3 receptor (Homo sapiens (Human))
Sequence (P56373 whole entry): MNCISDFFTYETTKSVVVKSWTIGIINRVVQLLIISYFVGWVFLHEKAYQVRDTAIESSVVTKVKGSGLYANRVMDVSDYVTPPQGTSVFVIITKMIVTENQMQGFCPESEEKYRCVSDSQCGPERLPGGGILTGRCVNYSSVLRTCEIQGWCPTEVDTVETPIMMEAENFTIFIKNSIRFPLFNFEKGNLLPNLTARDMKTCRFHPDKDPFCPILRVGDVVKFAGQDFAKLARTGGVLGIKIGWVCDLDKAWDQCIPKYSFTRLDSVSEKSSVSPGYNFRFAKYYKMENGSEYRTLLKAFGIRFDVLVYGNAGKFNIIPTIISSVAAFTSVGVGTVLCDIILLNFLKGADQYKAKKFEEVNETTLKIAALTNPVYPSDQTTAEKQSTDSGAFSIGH
assay_explanation: Evaluation of human P2X3 receptor inhibitory activity (Test Example 1)
condition_parameters: C6BU-1 cell transfected with human P2X3 receptor gene, FLIPR 384
One threshold, 6 nM, splits the recorded IC50 values: lower ones are 1, equal or higher ones are 0.

Please review the entries below; each comes with its answer.
CC(=O)c1ccc(Oc2ccc(/N=c3\[nH]c(=O)n(CCC(=O)O)c(=O)n3Cc3ccc(Cl)cc3)cc2)nc1 = 0
C[C@@H](Cn1c(=O)[nH]/c(=N\c2ccc(Oc3ncccc3C(F)(F)F)cc2)n(Cc2ccc(Cl)cc2)c1=O)C(=O)O = 0
COC(=O)[C@H](C)[C@H](C)n1c(=O)[nH]/c(=N\c2ccc(Oc3cc(Cl)ccn3)cc2)n(Cc2ccc(Cl)cc2)c1=O = 0
C[C@@H](Cn1c(=O)[nH]/c(=N\c2ccc(Oc3ccncc3)cc2)n(Cc2ccc(Cl)cc2)c1=O)C(=O)O = 1

Below: the item to evaluate.
Task: API: query returns whether the compound falls strictly under 6 nM in IC50. Query: CC1(C)OC[C@H](Cn2c(=O)[nH]/c(=N\c3ccc(Oc4ccccn4)cc3)n(Cc3ccc(Cl)cc3)c2=O)O1
Output: 1
